Tested on: SN12C
Test: NCI tumour cell line growth inhibition, 48 h
Active and inactive are the calls of the source. Cut-off read from the data, not from the text of the source: active = GI50 up to about 1.1 µM and inactive = higher.
Labels: 1.0 for active, 0.0 for inactive

Compound	Group label
CCOC(=O)/C(C)=C\[C@@]1(C)O[C@@H](C)[C@@](C)(OC(C)=O)[C@@H]1OC(C)=O	0.0
COc1ccccc1/C=C1\CCC(CN2CCOCC2)C1=O (stereo not given)	0.0
COC(=O)C1(C)CCC(c2ccc(C)cc2)=C(CC(=O)O)C1 (stereo not given)	0.0
COC1CCC(OC2CC(C3(C)CCC4(CC(O)C(C)C(C(C)/C=C(\C)C(=O)C(C)CC(C)C(=O)O)O4)O3)OC3(OC(C4OC(O)(CO)C(C)CC4C)CC3C)C2C)OC1C (stereo not given)	1.0
COC(=O)c1ccccc1/C=C1\Cc2c(ccc3c2CCC3)C1=O	0.0
COCN1C(=O)[C@@H]2CCCN2C(=O)c2cc(N)ccc21	0.0
c1ccc(CNc2c3c(nc4ccccc24)CCC3)cc1	0.0
O=C(O)CCCCCOc1cccnc1/C=N/NC1=NCCN1	0.0
O=c1sc2ccccc2n1CC1CS1 (stereo not given)	0.0
CC(C)[S+]1C2=C(CC(C)(C)CC2=O)[N-]c2ccccc21 (stereo not given)	0.0

---

Tested on: NCI-H522
Test: NCI tumour cell line growth inhibition, 48 h
Activity calls are given as the source filed them. No stated cut-off is given here; in the data, active = GI50 up to about 1.1 µM and inactive = higher.
Classes used: active, inactive

Compound	Group label
CC(=O)OCC1OC(OC2CC3C(C)(C)C(OC(C)=O)CC[C@]3(C)C3CCC45CC4(CC[C@H]5C(C)CC(O)[C@@H](O)C(C)(C)O)[C@]23C)C(O)C(O)C1O (some centres undefined)	inactive
O=C(Cc1ccc2ccccc2c1)NCc1ccc(C(=O)NCCc2ccccc2)cc1	inactive
CN1C(=O)c2c(c3c4ccccc4n(C4OC(CO)C(O)C(O)C4O)c3c3[nH]c4ccccc4c23)C1=O (centres undefined)	active
COC(=O)CN1c2nc(C#N)c(C#N)nc2N(CC(=O)OC)c2nc(C#N)c(C#N)nc21	active
O=C(NNC(=O)c1ccccc1O)c1ccco1	inactive
COc1ccc(C2=Nn3c(nnc(Cc4ccc(Cl)cc4)c3=O)SC2)cc1	inactive
NC(=O)C1CCCN1C(=O)N(CCCl)N=O (centres undefined)	inactive
Cc1cc([N+](=O)[O-])ccc1Sc1c2ccccc2nc2cc(Cl)ccc12	inactive
O=C(O)[C@H]1NC[C@H]2C(Br)=NO[C@@H]12	inactive

---

Tested on: CCRF-CEM
Experiment: NCI tumour cell line growth inhibition, 48 h
Active and inactive are the calls of the source. No stated cut-off is given here; in the data, active = GI50 up to about 1.1 µM and inactive = higher.
Labels: true (active), false (inactive)

Compound	Group label
O=C(Cc1ccc([N+](=O)[O-])cc1)OCC#CCOC(=O)Cc1ccc([N+](=O)[O-])cc1	false
CSc1ncnc2c1ncn2CC(=O)C1CCC2C3CCC4=CC(=O)CCC4(C)C3CCC12C (stereo not given)	true
N#Cc1c2ccccc2c(Cc2ccc3c(c2)OCCOCCOCCOCCOCCO3)c2ccccc12	false
CCN(CC)c1ccc(/C=c2\nc(-c3ccccc3)n3c2nc2ccccc23)cc1	true
CCOC(=O)c1cc2c3c(c(C(C)=O)c(OC)c2[nH]1)N(C(=O)CC)CC3	false
O=C1/C(=C/c2ccccc2Cl)COc2ccccc21	false
O=c1sc2ccccc2n1CC1CS1 (stereo not given)	false
COc1nc(C(Cl)(Cl)Cl)c(Cl)c(O)c1Cl	false
CCCCc1ccc(Nc2nc(OC)c3ncn(C4CC(O)C(CO)O4)c3n2)cc1 (stereo not given)	false
CC(C)C1C(=O)N2CCCC2C2(O)OC(NC(=O)C3C=C4c5cccc6[nH]cc(c56)CC4N(C)C3)(C(C)C)C(=O)N12 (stereo not given)	false

---

GI50 reference
System: HOP-62
Experiment: NCI tumour cell line growth inhibition, 48 h
The source made the active and inactive calls. Rule as the data show it: active = GI50 up to about 1.1 µM and inactive = higher.

Compound	GI50
CSc1nc(=O)c2nc(-c3cccs3)c(-c3cccs3)nc2n1C	20 µM (inactive)
Cc1cccc(N2C(=O)C3c4[nH]c5ccccc5c4C4CCC(C(C)(C)C)CC4C3C2=O)c1 (stereo not given)	3.54 µM (inactive)
c1ccc2c(c1)C(=Nc1ccc(N=C3c4ccccc4-c4ccccc43)cc1)c1ccccc1-2	> 100 µM (inactive)
COc1cc(/C=C/C(=O)O)ccc1OS(=O)(=O)O	> 100 µM (inactive)
Cc1nc2ccccc2c(=O)[nH]1	> 100 µM (inactive)
COc1ccc(OCC(=O)O)c2c1CCC(C(C)C)C2=O (stereo not given)	> 100 µM (inactive)
Cc1cc2nc3c(C(OC4OC(CO)C(O)C(O)C4O)C(O)CO)nn(-c4ccc(F)cc4)c3nc2cc1C (stereo not given)	> 100 µM (inactive)
Cc1nc2ccccc2c(=O)n1-c1ccccc1I	> 100 µM (inactive)
CCC(/C(=N/NC(=O)C[N+](C)(C)C)c1ccccc1)C1OC(=O)c2ccccc21 (stereo not given)	> 100 µM (inactive)
O=c1[nH]c(=O)n(C2OC(CO)C(O)C2O)c2nc(-c3ccc(-c4ccccc4)cc3)cnc12 (stereo not given)	> 100 µM (inactive)

---

Test system: DU-145
Test: NCI tumour cell line growth inhibition, 48 h
The source made the active and inactive calls. Cut-off read from the data, not from the text of the source: active = GI50 up to about 1.1 µM and inactive = higher.
Possible outcomes: True (active), False (inactive)

Compound	Tgt	Group label
O=C1CCCc2cc3c(cc21)CCC3C(=O)O (configuration not stated)	DU-145	False
O=C1c2ccccc2C(=O)c2c1oc(=O)c1ccccc21	DU-145	False
CC12CCC(C(=O)n3c1nc1ccccc13)C(C)(C)O2 (configuration not stated)	DU-145	False
COC12C=CC(CC1)C(C)(C)C2OS(C)(=O)=O (configuration not stated)	DU-145	False
O=C1CSC2=NCC3(NN12)c1ccccc1-c1ccccc13	DU-145	False
CCOC(=O)C1(CC(=O)O)CCCC1=O (configuration not stated)	DU-145	False
Nc1ccn(C2CCC(COP(=O)(O)OCC(O)COP(=O)(O)OCC3OC(n4cc(F)c(=O)[nH]c4=O)CC3O)O2)c(=O)n1 (configuration not stated)	DU-145	True
NCCCC[C@H](N)C(=O)Nc1ccc(-c2nc3ccccc3s2)cc1	DU-145	False
CCOC(=O)c1cnc2[nH]ccn2c1=O	DU-145	False
Cc1ccsc1C(=S)Nc1ccc(Cl)c(C(=O)OC(C(C)C)C(C)C)c1	DU-145	False
CC1=C(C)C(=O)OC(C(C)(O)C2(O)CCC3(O)C4CC(Cl)C5(O)C(O)C=CC(=O)C5(C)C4CCC32C)C1 (configuration not stated)	DU-145	False
CC1CC(C#N)=C2NCCCCN2C1=O (configuration not stated)	DU-145	False
Cc1ccc(/N=N\c2c(O)ccc3cc(S(=O)(=O)O)ccc23)cc1	DU-145	False
CCC(=O)OC1CCn2c1nc1c2C(=O)C(C)=C(N2CC2)C1=O (configuration not stated)	DU-145	True
O=C(NNC(=S)Nc1ccccc1)c1cc(-c2ccccc2)nc2ccccc12	DU-145	False
CC1=CCC[C@H]2[C@](C)(CC3=CC(=O)C4SCCSC4C3=O)[C@@H](C)CC[C@]12C (some centres not stated)	DU-145	False
CCN(CC)C(=S)SS(=O)(=O)c1ccc(Cl)cc1	DU-145	False
O=C1C(CN2CCCCC2)CCC1CN1CCCCC1 (configuration not stated)	DU-145	False
NC1=NC2(COC(c3ccccc3)(c3ccccc3)c3ccccc3)OC(COC(c3ccccc3)(c3ccccc3)c3ccccc3)C(O)C2O1 (configuration not stated)	DU-145	False
CC1CNC(c2ccc(CN3CCC(C4CCN(Cc5ccc(C6=NC(C)CN6)cc5)CC4)CC3)cc2)=N1 (configuration not stated)	DU-145	False
COc1ccc(N2C(=O)C(=O)C3(CCCCC3)C2=O)c2ccccc12	DU-145	False
CC(=O)Oc1ccc(/C=C/C(=O)OCCCOC(=O)/C=C/c2ccc(OC(C)=O)c(OC(C)=O)c2)cc1OC(C)=O	DU-145	False

---

Test system: SR
Test: NCI tumour cell line growth inhibition, 48 h
Activity calls are given as the source filed them. No stated cut-off is given here; in the data, active = GI50 up to about 1.1 µM and inactive = higher.
Possible outcomes: active, inactive

Compound	Group label
CCN(CC)C(=S)N/N=C/c1cc(OC)ccc1O	inactive
CC1=C(/C=C/C(C)=C/C=C/C(C)=C/C=C/C=C(C)/C=C/C=C(C)/C=C/C2=C(C)C(=O)C(O)CC2(C)C)C(C)(C)CC(O)C1=O (stereo not given)	inactive
Oc1cc(-c2cccc(OC(F)(F)F)c2)nc2ccc(N3CCCC3)cc12	active
COc1ccc(-c2cc(-c3ccccc3)[nH]c(=S)c2C#N)cc1	inactive
COC12C=CC(CC1)C(C)(C)C2OS(C)(=O)=O (stereo not given)	inactive

---

Tested on: Malme-3M
Assay: NCI tumour cell line growth inhibition, 48 h
Activity calls are given as the source filed them. Cut-off read from the data, not from the text of the source: active = GI50 up to about 1.1 µM and inactive = higher.
Quick list: GI50 per entry.
Measured attribute: GI50

Compound	Value observed
COc1cc(C/N=c2/nc(N(C)C)ss2)cc(OC)c1OC	> 5.15 µM (inactive)
COc1cccc2cc(C(=O)Nc3ccccn3)c(=N)oc12	50.9 µM (inactive)
CC1CC2C(=O)N(c3ccccc3)C(=O)C2c2c1c1ccccc1n2Cc1ccccc1 (stereo unspecified)	> 100 µM (inactive)
c1ccc2c(c1)C(=Nc1ccc(N=C3c4ccccc4-c4ccccc43)cc1)c1ccccc1-2	> 100 µM (inactive)
COc1cc(/C=C/c2ccc(OC)c(O)c2)cc(OC)c1	10 µM (inactive)
Clc1ccc(Nc2ncco2)cc1Cl	> 10 µM (inactive)
